- System: SK-MEL-28 melanoma
- test details: NCI-60 one-dose screen, 48 h (100 = growth as untreated, 0 = no growth, -100 = all killed)
- experimental setup: 10 µM unless noted
Compounds without any hit were thinned out: in the full panel of roughly 83,000, 20% have a hit. Active and inactive are the calls of the source. How the source made its calls: active means growth percent below 10; inactive means the rest.
endpoint name: growth

Request: Value lookup for growth; key = `Cn1cc(C(=O)c2nc(-c3c[nH]c4ccc(Br)cc34)no2)c2cc(F)ccc21`
Response: 105% (inactive)

Request: // query growth value for entry `CCN1CCN(c2nc(NCCNc3ccnc4cc(Cl)ccc34)c3ccccc3n2)CC1`
Response: -60.1% (active)

Request: Item `O=C1c2cc3c(cc2-c2c1c1ccc(F)cc1c(=O)n2CCCNCCO)OCO3` has what recorded growth?
Response: -13.8% (active)

Request: Can you share its growth? I mean this compound: `Cn1c(=O)c2c(nc3n(-c4ccc(Cl)cc4Cl)c(Sc4nc(-c5ccccc5)c(C#N)c(=O)[nH]4)cn23)n(C)c1=O`
Response: 87.8% (inactive)

Request: Item under review: `Nc1ccn(-c2ccc(Br)cc2)c(=O)n1` . Reported growth?
Response: 137% (inactive)

These data points were gathered from PubChem BioAssay (NCI).
